Each entry below carries its recorded inhibition at 0.01 µM.
measured target: Steroid 17-alpha-hydroxylase/17,20 lyase (Homo sapiens, UniProt P05093)
Sequence (P05093 whole entry): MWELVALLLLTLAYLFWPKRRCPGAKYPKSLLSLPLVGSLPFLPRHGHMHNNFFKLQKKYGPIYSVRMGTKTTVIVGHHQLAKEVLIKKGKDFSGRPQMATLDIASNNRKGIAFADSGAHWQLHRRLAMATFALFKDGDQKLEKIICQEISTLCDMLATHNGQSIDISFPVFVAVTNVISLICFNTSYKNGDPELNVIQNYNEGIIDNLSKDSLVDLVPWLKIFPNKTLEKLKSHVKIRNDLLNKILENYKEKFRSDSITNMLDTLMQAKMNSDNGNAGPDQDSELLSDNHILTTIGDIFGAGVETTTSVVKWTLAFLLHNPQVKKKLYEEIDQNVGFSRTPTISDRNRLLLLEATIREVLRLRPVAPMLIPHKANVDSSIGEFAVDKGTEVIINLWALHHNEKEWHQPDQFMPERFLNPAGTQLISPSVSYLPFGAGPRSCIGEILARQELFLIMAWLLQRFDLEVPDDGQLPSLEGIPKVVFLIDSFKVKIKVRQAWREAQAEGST
test description: Inhibition of CYP17 in human testicular microsomes using 17alpha-hydroxypregnenolone as substrate assessed as decrease in DHEA levels at 10 nM after 90 mins by ELISA relative to control
Set-up: species or system Testis
conditions: 1.5 h

Example compounds with recorded inhibition at 0.01 µM:
compound	result
CN1CC=C2CC[C@@H]3[C@H](CC[C@]4(C)C(c5cccnc5)=CC[C@@H]34)[C@@]2(C)CC1	1 to 50%
CCc1cncc(C2=CC[C@H]3[C@@H]4CC=C5CCCC[C@]5(C)[C@H]4CC[C@]23C)c1	1 to 50%
C[C@]12CC[C@H]3[C@@H](CC[C@H]4C[C@@H](O)CC[C@@]43C)C1=CC=C2n1ccnc1	≥ 80%

Task: Need inhibition at 0.01 µM of `CCOc1cncc(C2=CC[C@H]3[C@@H]4CC[C@H]5COCCC[C@]5(C)[C@H]4CC[C@]23C)c1` , thanks.
Output: 50 to 80%

Task: Quick one: inhibition at 0.01 µM for `C[C@]12CCNC(=O)C=C1CC[C@@H]1[C@@H]2CC[C@]2(C)C(n3ccnc3)=CC[C@@H]12` ?
Output: ≥ 80%

Task: // query inhibition at 0.01 µM value for entry C[C@]12CCCOCC1CCC1C2CC[C@]2(C)C(c3cccnc3)=CC[C@@H]12 (single isomer, unassigned)
Output: ≥ 80%

Task: Could you share which inhibition at 0.01 µM value was measured for `C[C@]12CC[C@H]3[C@@H](CC[C@H]4CC(=O)CC[C@@]43C)C1=CC=C2c1cccnc1` ?
Output: ≥ 80%
